Entries and their IC50
- study.target: NRAS WT (Homo sapiens, UniProt P01111+P62937)
- Sequence (P01111 whole entry): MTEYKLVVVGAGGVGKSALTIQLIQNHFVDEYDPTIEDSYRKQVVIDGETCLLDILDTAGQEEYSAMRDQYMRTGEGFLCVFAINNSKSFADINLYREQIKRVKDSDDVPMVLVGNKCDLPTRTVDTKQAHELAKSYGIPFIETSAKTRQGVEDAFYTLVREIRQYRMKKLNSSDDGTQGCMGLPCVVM
- Sequence (P62937 whole entry): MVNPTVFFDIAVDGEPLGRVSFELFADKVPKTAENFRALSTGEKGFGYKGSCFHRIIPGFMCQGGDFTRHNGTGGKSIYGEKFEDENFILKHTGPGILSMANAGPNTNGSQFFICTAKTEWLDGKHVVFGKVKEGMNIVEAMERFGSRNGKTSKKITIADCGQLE
- method.description: Disruption of BRAF RBD interaction with Ras (FRET / MOA assay, with Cyclophilin A)
- Format: biochemical
- measurement.setup: NRAS WT; read-out: NRAS WT FRET data IC50

CCn1c(-c2cccnc2[C@H](C)OC)c2c3cc(ccc31)-c1csc(n1)C[C@H](NC(=O)[C@H](C(C)C)N(C)C(=O)N1CCO[C@@H](C)C1)C(=O)N1CCC[C@H](N1)C(=O)OCC(C)(C)C2 (atropisomer, axis not shown) [Example A309]; 10 to 100 nM

For the next question, use this compound.
Lookup: Given CCn1c(-c2cccnc2[C@H](C)OC)c2c3cc(ccc31)-c1csc(n1)C[C@H](NC(=O)[C@H](C(C)C)N(C)C(=O)N1CC([C@@H](C)OC)C1)C(=O)N1CCC[C@H](N1)C(=O)OCC(C)(C)C2 (atropisomer, axis not shown) [Example A278] , report its IC50 on NRAS WT (Homo sapiens, UniProt P01111+P62937).
Found: 10 to 100 nM

----------
- study.target: KRAS G12V (Homo sapiens, UniProt P01116+P62937, G12V)
- Sequence (P01116 1-169 isoform P01116-2 G12V limits assumed): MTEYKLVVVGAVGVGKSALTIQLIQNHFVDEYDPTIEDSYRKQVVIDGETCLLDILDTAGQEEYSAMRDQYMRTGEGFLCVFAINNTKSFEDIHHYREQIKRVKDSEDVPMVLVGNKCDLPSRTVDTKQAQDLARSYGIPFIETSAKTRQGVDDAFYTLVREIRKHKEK
- Sequence (P62937 whole entry): as the sequence (P62937 whole entry) above
- method.description: Ras-Raf disruption / FRET / MOA assay (BRAF RBD)
- Type: biochemical
- measurement.setup: Ras-Raf disruption, with Cyclophilin A; read-out: KRAS G12V FRET data IC50
pIC50: −log10 of the molar value.
// pIC50 lookup, one value per entry

CCn1c(-c2cccnc2[C@H](C)OC)c2c3cc(ccc31)-c1csc(n1)C[C@H](NC(=O)[C@H](C(C)C)N(C)C(=O)N1CC[C@@H](N(C)C(=O)[C@@H]3CN3)C1)C(=O)N1CCC[C@H](N1)C(=O)OCC(C)(C)C2 (atropisomer, axis not shown) [Example 227]; 6.00 to 7.00

Proceed to the following item.
Lookup: Identify measured pIC50 corresponding to CCn1c(-c2cccnc2[C@H](C)OC)c2c3cc(ccc31)-c1cc(O)cc(c1)C[C@H](NC(=O)[C@H](C(C)C)N(C)C(=O)[C@H]1C[C@H](NC(=O)[C@@H]3CN3)C1)C(=O)N1CCC[C@H](N1)C(=O)OCC(C)(C)C2 [Example 167]
Found: 7.00 to 8.00

----------
The following compounds are listed with their measured IC50 values.
- study.target: KRAS Q61H (Homo sapiens, UniProt P01116+P62937, Q61H)
- Sequence (P01116 1-169 isoform P01116-2 Q61H limits assumed): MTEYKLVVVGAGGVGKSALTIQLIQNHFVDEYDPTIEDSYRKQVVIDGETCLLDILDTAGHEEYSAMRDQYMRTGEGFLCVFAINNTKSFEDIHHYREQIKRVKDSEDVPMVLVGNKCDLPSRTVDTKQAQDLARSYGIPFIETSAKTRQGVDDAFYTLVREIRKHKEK
- Sequence (P62937 whole entry): as the sequence (P62937 whole entry) above
- method.description: Ras-Raf disruption / FRET / MOA assay (BRAF RBD)
- Assay type: biochemical
- measurement.setup: KRAS Q61H; read-out: KRAS Q61H FRET data IC50

These recorded examples may help you get a feel for the data.
CCn1c(-c2cccnc2[C@H](C)OC)c2c3cc(ccc31)-c1csc(n1)C[C@H](NC(=O)[C@H](C(C)C)N(C)C(=O)N(C)C1CN(C(=O)[C@@H]3CN3)C1)C(=O)N1CCC[C@H](N1)C(=O)OCC(C)(C)C2; 100 to 1000 nM
CCn1c(-c2cccnc2[C@H](C)OC)c2c3cc(ccc31)-c1cc(O)cc(c1)C[C@H](NC(=O)[C@H](C(C)C)N(C)C(=O)N1CC[C@H](N(C)C(=O)[C@@H]3CN3)C1)C(=O)N1CCC[C@H](N1)C(=O)OCC(C)(C)C2 (atropisomer, axis not shown); 10 to 100 nM
CCOC(=O)[C@H]1O[C@@H]1C(=O)N1CC[C@H](C(=O)N(C)[C@H](C(=O)N[C@H]2Cc3cc(O)cc(c3)-c3ccc4c(c3)c(c(-c3cccnc3[C@H](C)OC)n4CC)CC(C)(C)COC(=O)[C@@H]3CCCN(N3)C2=O)C(C)C)C1; 10 to 100 nM
CCn1c(-c2cccnc2[C@H](C)OC)c2c3cc(ccc31)-c1csc(n1)C[C@H](NC(=O)[C@H](C(C)C)N(C)C(=O)N1CC[C@H](N(C)C(=O)[C@@H]3CN3)C1)C(=O)N1CCC[C@H](N1)C(=O)OCC(C)(C)C2 (atropisomer, axis not shown); 10 to 100 nM
CCn1c(-c2cccnc2[C@H](C)OC)c2c3cc(ccc31)-c1cc(O)cc(c1)C[C@H](NC(=O)[C@@H](COC1CCN(C(=O)[C@H]3CN3)CC1)C(C)C)C(=O)N1CCC[C@H](N1)C(=O)OCC(C)(C)C2 (atropisomer, axis not shown); 100 to 1000 nM

Lookup: Recall and state the measured IC50 for CCn1c(-c2cccnc2[C@H](C)OC)c2c3cc(ccc31)-c1cc(O)cc(c1)C[C@H](NC(=O)[C@H](C(C)C)N(C)C(=O)C1CCN(S(=O)(=O)[C@@H]3CN3C)CC1)C(=O)N1CCC[C@H](N1)C(=O)OCC(C)(C)C2 (single isomer, unassigned) .
Found: 10 to 100 nM

Lookup: # return recorded IC50 for input CCn1c(-c2cccnc2[C@H](C)OC)c2c3cc(ccc31)-c1cc(O)cc(c1)C[C@H](NC(=O)[C@H](C(C)C)N(C)C(=O)CN(C)C(=O)[C@H]1C[C@@H]3N[C@@H]3C1)C(=O)N1CCC[C@H](N1)C(=O)OCC(C)(C)C2 (atropisomer, axis not shown)
Found: 10 to 100 nM

Lookup: Give the value of IC50 reported for the following: CCn1c(-c2cccnc2[C@H](C)OC)c2c3cc(ccc31)-c1csc(n1)C[C@H](NC(=O)[C@H](C(C)C)N(C)C(=O)N1CCC[C@H](N(C)C(=O)[C@@H]3CN3)C1)C(=O)N1CCC[C@H](N1)C(=O)OCC(C)(C)C2 (atropisomer, axis not shown)
Found: 100 to 1000 nM
